Below, each of the compounds is paired with its reported pIC50 value.
- Test Target: pY641-STAT6 in PBMC (Homo sapiens)
- Construct: Cryopreserved Peripheral Blood Mononuclear Cells (PBMC) are from AllCells; host or cells: cryopreserved PBMC
- Sequence (P42226 whole entry): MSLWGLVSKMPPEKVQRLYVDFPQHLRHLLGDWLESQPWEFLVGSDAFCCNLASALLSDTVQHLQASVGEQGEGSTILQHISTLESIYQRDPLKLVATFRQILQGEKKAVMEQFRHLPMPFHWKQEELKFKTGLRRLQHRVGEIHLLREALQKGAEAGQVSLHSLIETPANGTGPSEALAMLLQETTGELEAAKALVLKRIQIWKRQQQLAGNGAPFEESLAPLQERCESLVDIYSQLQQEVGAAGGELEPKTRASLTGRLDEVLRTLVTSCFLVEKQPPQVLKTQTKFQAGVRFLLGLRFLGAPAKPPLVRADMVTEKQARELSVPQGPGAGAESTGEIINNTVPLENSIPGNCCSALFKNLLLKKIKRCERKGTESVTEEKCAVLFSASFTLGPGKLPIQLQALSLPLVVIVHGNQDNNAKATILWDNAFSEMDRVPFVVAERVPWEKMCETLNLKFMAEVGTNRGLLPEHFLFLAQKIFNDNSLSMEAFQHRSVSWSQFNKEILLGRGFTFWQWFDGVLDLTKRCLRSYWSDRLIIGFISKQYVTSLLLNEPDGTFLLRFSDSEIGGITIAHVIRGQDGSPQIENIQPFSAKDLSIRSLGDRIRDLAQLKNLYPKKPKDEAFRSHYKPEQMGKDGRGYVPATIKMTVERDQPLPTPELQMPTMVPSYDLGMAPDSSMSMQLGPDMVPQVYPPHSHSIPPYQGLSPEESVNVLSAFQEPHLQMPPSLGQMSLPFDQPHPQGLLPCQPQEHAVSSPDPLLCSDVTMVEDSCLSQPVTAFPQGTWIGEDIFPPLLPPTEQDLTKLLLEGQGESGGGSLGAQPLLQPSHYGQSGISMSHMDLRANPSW
- Test Protocol: MSD-pSTAT-PBMC Assay (pSTAT6, IL-4 stimulated)
- Assay type: cell-based
- Condition Description: STAT6, PBMC, compound 3 hrs, then 1 ng/mL IL-4 for 10 min; Table 115
pIC50: −log10 of the molar value.

Known results for compounds:
INSERT INTO assay_data (compound, result) VALUES
  ('CCCOC(=O)[C@H](C)NP(=O)(Oc1ccccc1)[C@@H](F)c1ccc2sc(C(=O)N[C@H]3CCCC[C@H]4CC[C@@H](C(=O)N5C[C@H](c6cccc(OC)c6)[C@@H](C#N)C56CC6)N4C3=O)cc2c1 (single isomer, unassigned) [Compound 335]', '> 7.00'),
  ('CC(C)CC(=O)SCCOP(=O)(Oc1cccc(C#N)c1)C(F)(F)c1ccc2sc(C(=O)N[C@H]3CCC[C@H]4CC[C@@H](C(=O)N5CC(c6cccnc6)C5)N4C3=O)cc2c1 (some centres unmarked) [Compound 1008]', '< 5.52'),
  ('CCCOC(=O)[C@H](C)NP(=O)(Oc1ccccc1)[C@H](F)c1ccc2sc(C(=O)N[C@H]3CCCC[C@H]4CC[C@@H](C(=O)N5C[C@@H](C#N)[C@H](c6ccccc6)C5)N4C3=O)cc2c1 (single isomer, unassigned) [Compound 321]', '> 7.00'),
  ('CCCOC(=O)[C@H](C)NP(=O)(Oc1ccccc1)C(F)c1ccc2sc(C(=O)N[C@H]3CCC[C@H]4CC[C@@H](C(=O)N5CC(c6cnccc6F)C5)N4C3=O)cc2c1 (some centres unmarked) [Compound 943]', '< 5.52'),
  ('CCCOC(=O)[C@H](C)NP(=O)(Oc1ccccc1)[C@@H](F)c1ccc2sc(C(=O)N[C@H]3CCCC[C@H]4CC[C@@H](C(=O)N5C[C@@H](c6cccc(C(F)F)c6)[C@H](C#N)C56CC6)N4C3=O)cc2c1 (single isomer, unassigned) [Compound 482]', '> 7.00');

Attention now shifts to the item below.
Give the measured pIC50 of CCCOC(=O)[C@H](C)NP(=O)(Oc1ccccc1)[C@H](F)c1ccc2sc(C(=O)N[C@H]3CCC[C@H]4CC[C@@H](C(=O)N5C[C@H](c6ccccc6)[C@@H](C#N)C56CC6)N4C3=O)cc2c1 (some centres unmarked) [Compound 388] . > 7.00

====

- Test Target: Recombinant STAT6 protein (STAT6 (W123-T658)) (Homo sapiens)
- Construct: Recombinant STAT6 protein (STAT6 (W123-T658))
- Test Protocol: STAT6 Fluorescence Polarization (FP) Assay
- Format: binding
- Condition Description: STAT6 (W123-T658) 250 nM, probe 5-FAM-Ap[…]-NH2 2 nM, 45-minute incubation; read-out: STAT6 (FP assay IC50 class)
Observation Type: IC50

Known results for molecules:
INSERT INTO measurements (molecule, test_target, observation_type, result) VALUES
  ('O=C(N[C@H]1CCCC[C@H]2CC[C@@H](C(=O)N3CCC(O)(c4cc[nH]c(=O)c4)C3)N2C1=O)c1cc2cc(C(F)(F)P(=O)(O)O)ccc2s1 (some centres unmarked) [Compound 513]', 'Recombinant STAT6 protein (STAT6 (W123-T658)) (Homo sapiens)', 'IC50', '0.3 to 3 µM'),
  ('Cn1cnnc1C1(O)CN(C(=O)[C@@H]2CC[C@@H]3CCC[C@H](NC(=O)c4cc5cc(C(F)(F)P(=O)(O)O)ccc5s4)C(=O)N32)C1 [Compound 807]', 'Recombinant STAT6 protein (STAT6 (W123-T658)) (Homo sapiens)', 'IC50', '0.3 to 3 µM'),
  ('Cc1ccncc1C1CN(C(=O)[C@@H]2CC[C@@H]3C[C@H](C)C[C@H](NC(=O)c4cc5cc([C@H](F)P(=O)(O)O)ccc5s4)C(=O)N32)C1 (single isomer, unassigned) [Compound 740]', 'Recombinant STAT6 protein (STAT6 (W123-T658)) (Homo sapiens)', 'IC50', '3 to 30 µM'),
  ('Cc1c(C#N)cncc1C1CN(C(=O)[C@@H]2CC[C@@H]3CCC[C@H](NC(=O)c4cc5cc(CP(=O)(O)O)ccc5s4)C(=O)N32)C1 [Compound 510]', 'Recombinant STAT6 protein (STAT6 (W123-T658)) (Homo sapiens)', 'IC50', '3 to 30 µM');

Attention now shifts to the item below.
API: value(readout=IC50, system=Recombinant STAT6 protein (STAT6 (W123-T658)) (Homo sapiens)) for record CC1(C)CC(c2ccccc2)CN1C(=O)[C@@H]1CC[C@@H]2CCCC[C@H](NC(=O)c3cc4cc(C(F)(F)P(=O)(O)O)ccc4s3)C(=O)N21 (some centres unmarked) [Compound 813] 0.3 to 3 µM

====

- Test Target: pY641-STAT6 in PBMC (Homo sapiens)
- Construct: Cryopreserved Peripheral Blood Mononuclear Cells (PBMC) are from AllCells; host or cells: cryopreserved PBMC
- Test Protocol: MSD-pSTAT-PBMC Assay (pSTAT6, IL-4 stimulated)
- Type: cell-based
- Condition Description: STAT6, PBMC, compound 3 hrs, then 1 ng/mL IL-4 for 10 min; Table 115
- Experimental: Cryopreserved Peripheral Blood Mononuclear Cells (PBMC) are from AllCells. Recombinant Human IL-4 and IL-6 are from Peprotech. […] Cyropreserved PBMCs were thawed out and allowed to recover overnight in IMDM+10% heat-inactivated FBS prior to plating 50,000 (STAT3) or 25,000 (STAT6) cells per well in 96-well U-bottom tissue culture plates. […] Assay plates were then washed and 150 μL of 1× Read Buffer-T (MSD) was added to each well prior to reading on an SQ120 MSD Plate Reader. […]
Observation Type: IC50

INSERT INTO results (compound, result) VALUES
  ('CCCOC(=O)[C@H](C)NP(=O)(Oc1ccccc1)[C@@H](F)c1ccc2sc(C(=O)N[C@H]3CCCC[C@H]4CC[C@@H](C(=O)N5C(=O)N(c6cncc(C(F)F)c6)C(=O)C56CC6)N4C3=O)cc2c1 (stereo partly drawn)', '> 3000 nM'),
  ('CCCOC(=O)[C@H](C)NP(=O)(Oc1ccccc1)[C@H](F)c1ccc2sc(C(=O)N[C@H]3CCC[C@H]4CC[C@@H](C(=O)N5C[C@@H](c6ccccc6)[C@H](C#N)C56CC6)N4C3=O)cc2c1 (stereo partly drawn)', '< 100 nM'),
  ('CCCOC(=O)[C@H](C)NP(=O)(Oc1ccccc1)C(F)c1ccc2sc(C(=O)N[C@H]3C[C@@H](C)C[C@H]4CC[C@@H](C(=O)N5CC(c6cnccc6F)C5)N4C3=O)cc2c1 (stereo partly drawn)', '> 3000 nM'),
  ('CCOC(=O)[C@H](C)NP(=O)(Cc1ccc2ccc(C(=O)N[C@H]3CCCC[C@H]4CC[C@@H](C(=O)N5CC(c6ccccc6)CC56CC6)N4C3=O)cc2c1)Oc1ccccc1 (stereo partly drawn)', '1000 to 3000 nM');

Give the measured IC50 of CCCOC(=O)[C@H](C)NP(=O)(Cc1ccc2ccc(C(=O)N[C@H]3CCCC[C@H]4CC[C@@H](C(=O)N5CC(c6ccccc6)CC56CC6)N4C3=O)cc2c1)Oc1ccccc1 (stereo partly drawn) . 100 to 1000 nM

Please do the same for CCCOC(=O)[C@H](C)NP(=O)(Oc1ccccc1)[C@H](F)c1ccc2sc(C(=O)N[C@H]3C[C@@H](C)C[C@H]4CC[C@@H](C(=O)N5C[C@H](c6ccccc6)[C@@H](C#N)C56CC6)N4C3=O)cc2c1 (stereo partly drawn) as well. < 100 nM

Please do the same for C[C@H](NP(=O)(Oc1ccccc1)[C@@H](F)c1ccc2sc(C(=O)N[C@H]3CCCC[C@H]4CC[C@@H](C(=O)N5C[C@@H](c6cccnc6)CC56CC6)N4C3=O)cc2c1)C(=O)OCC(C)(C)C (stereo partly drawn) as well. < 100 nM

Please do the same for CCCOC(=O)[C@H](C)NP(=O)(Oc1ccccc1)[C@@H](F)c1ccc2sc(C(=O)N[C@H]3CCCC[C@H]4CC[C@@H](C(=O)N5C(=O)N(c6cncc(C)c6)C(=O)C56CC6)N4C3=O)cc2c1 (stereo partly drawn) as well. 100 to 1000 nM

Please do the same for CCCOC(=O)[C@H](C)NP(=O)(Oc1ccccc1)C(F)c1ccc2ccc(C(=O)N[C@H]3CCCC[C@H]4CC[C@@H](C(=O)N5CC(c6ccccc6)CC56CC6)N4C3=O)cc2c1 (stereo partly drawn) as well. < 100 nM

====

- Test Target: Recombinant STAT6 protein (STAT6 (W123-T658)) (Homo sapiens, UniProt P42226)
- Construct: Recombinant STAT6 protein (STAT6 (W123-T658))
- Test Protocol: STAT6 Fluorescence Polarization (FP) Assay
- Assay type: binding
- Condition Description: STAT6 (W123-T658) 250 nM, probe 5-FAM-Ap[…]-NH2 2 nM, 45-minute incubation; read-out: STAT6 (FP assay IC50 class)
Observation Type: IC50

INSERT INTO results (compound, result) VALUES
  ('O=C(N[C@H]1CCC[C@H]2CC[C@@H](C(=O)N3CC(c4ccc5ncccc5c4F)C3)N2C1=O)c1cc2cc(C(F)P(=O)(O)O)ccc2s1 (some centres unmarked) [Compound 544]', '3 to 30 µM'),
  ('COC1(c2cncnc2)CN(C(=O)[C@@H]2CC[C@@H]3CCC[C@H](NC(=O)c4cc5cc(C(F)(F)P(=O)(O)O)ccc5s4)C(=O)N32)C1 [Compound 723]', '3 to 30 µM'),
  ('O=C(N[C@H]1CCC[C@H]2CC[C@@H](C(=O)N3CC(c4cc5cccnc5cc4F)C3)N2C1=O)c1cc2cc(C(F)P(=O)(O)O)ccc2s1 (some centres unmarked) [Compound 560]', '3 to 30 µM'),
  ('CO[C@H]1CC[C@@H](NC(=O)[C@@H]2CC[C@@H]3CCC[C@H](NC(=O)c4cc5cc(C(F)P(=O)(O)O)ccc5s4)C(=O)N32)C1 (some centres unmarked) [Compound 535]', '3 to 30 µM'),
  ('N#CC1CN(C(=O)[C@@H]2CC[C@@H]3CCC[C@H](NC(=O)c4cc5cc(C(F)(F)P(=O)(O)O)ccc5s4)C(=O)N32)C1 [Compound 780]', '0.3 to 3 µM');

Give the measured IC50 of O=C(N[C@H]1CCC[C@H]2CC[C@@H](C(=O)N3CC(c4ccncc4F)C3)N2C1=O)c1cc2cc(C(F)P(=O)(O)O)ccc2s1 (some centres unmarked) [Compound 610] . 3 to 30 µM

Please do the same for N#Cc1cccc(C2CN(C(=O)[C@@H]3CC[C@@H]4CCC[C@H](NC(=O)c5cc6cc(CP(=O)(O)O)ccc6s5)C(=O)N43)C2)n1 [Compound 653] as well. 3 to 30 µM

Please do the same for Cn1ncc(C2CCN(C(=O)[C@@H]3CC[C@@H]4CCCC[C@H](NC(=O)c5cc6cc(C(F)P(=O)(O)O)ccc6s5)C(=O)N43)C2)cc1=O (some centres unmarked) [Compound 913] as well. 0.3 to 3 µM

Please do the same for CN(C)c1cc(C2CN(C(=O)[C@@H]3CC[C@@H]4CCC[C@H](NC(=O)c5cc6cc([C@@H](F)P(=O)(O)O)ccc6s5)C(=O)N43)C2)ccn1 (single isomer, unassigned) [Compound 701] as well. 3 to 30 µM

Please do the same for N#C[C@@H]1[C@@H](c2cncc(Cl)c2)CN(C(=O)[C@@H]2CC[C@@H]3CCCC[C@H](NC(=O)c4cc5cc(C(F)P(=O)(O)O)ccc5s4)C(=O)N32)C12CC2 (single isomer, unassigned) [Compound 846] as well. 0.3 to 3 µM

Please do the same for C[C@@H]1[C@@H](c2cccnc2)CN1C(=O)[C@@H]1CC[C@@H]2CCC[C@H](NC(=O)c3cc4cc(C(F)P(=O)(O)O)ccc4s3)C(=O)N21 (single isomer, unassigned) [Compound 738] as well. 0.3 to 3 µM
